Property: growth; scope: individual compounds
Test system: OVCAR-4 ovarian
Assay: NCI-60 one-dose screen, 48 h (100 = growth as untreated, 0 = no growth, -100 = all killed)
Details: 10 µM unless noted
This is part of a sample that, as a whole, favours compounds with a hit. Of some 83,000 tested, about 20% had one in any assay.
READOUT: growth (%)

compound="CCCCCCCCc1ccc(OCCOCC[N+](C)(C)CC)cc1 (tested in a mixture with another compound)" readout=growth endpoint_value=20.7
compound=O=c1oc2ccc3ccccc3c2cc1-c1ccnc2[nH]c(=S)[nH]c(=O)c12 readout=growth endpoint_value=117
compound=CC(=O)N1CCN(CCNC(=O)n2cc(-c3ccncc3)c(-c3ccc(O)c(Cl)c3)n2)CC1 readout=growth endpoint_value=127
compound=COc1ccc(Cn2cc3c(c2-c2ccccc2)CCc2cnoc2-3)cc1N readout=growth endpoint_value=44.5
compound=O=C(NCCCl)Nc1nccnc1OCc1ccc(F)cc1 readout=growth endpoint_value=104
compound=COc1nc(OC)nc(-c2cc(-c3cc(OC)c(OC)c(OC)c3)no2)n1 readout=growth endpoint_value=106
compound=O=C(Nc1ccc(-n2cc(-c3ccncc3)c(-c3ccc(Cl)c(O)c3)n2)cc1)c1cc(C(F)(F)F)cc(C(F)(F)F)c1 readout=growth endpoint_value=70
compound=Cc1cc2c(-c3nc4ccccc4n3C)c(O)c(O)cc2c(O)c1-c1c(C)cc2c(-c3nc4ccccc4n3C)c(O)c(O)cc2c1O readout=growth endpoint_value=70.1
compound=CCOC(=O)c1c(C)oc2ncnc(Nc3ccc(C(=O)NCCc4ccccc4)cc3)c12 readout=growth endpoint_value=45.5

* * *

Property: growth; scope: individual molecules
System: M14 melanoma
Experiment: NCI-60 one-dose screen, 48 h (100 = growth as untreated, 0 = no growth, -100 = all killed)
Conditions: 10 µM unless noted
This is part of a sample that, as a whole, favours compounds with a hit. Of some 83,000 tested, about 20% had one in any assay. The source made the active and inactive calls. How the source made its calls: active means growth percent below 10; inactive means the rest.
READOUT: growth

smiles_entry=O=C(N/N=C/c1cc(Cl)ccc1O)C(=O)N/N=C/c1cc(Cl)ccc1O endpoint_value="78.6% (inactive)"
smiles_entry=CC(C)(C)c1ccc([I+]c2ccc(C(C)(C)C)cc2)cc1 endpoint_value="2.73% (active)"
smiles_entry=O=C(/C=C1\C(=O)N(Cc2ccccc2)c2ccccc21)c1ccc(OCCN2CCCCC2)cc1 endpoint_value="37.9% (inactive)"
smiles_entry=COC(=O)[C@H](Cc1cn(C)cn1)NC(=O)[C@H](Cc1c[nH]c2ccccc12)NC(=O)Nc1cc(C(F)(F)F)cc(C(F)(F)F)c1 endpoint_value="-83.8% [100 µM] (active)"
smiles_entry=CCOC(=O)c1c(C)oc2ncnc(Nc3ccc(NC(=O)Nc4ccc(CC)cc4)cc3)c12 endpoint_value="99.9% (inactive)"
smiles_entry=O=C1OC(c2ccc(-c3ccccc3)cc2)=C/C1=C/c1c2ccccc2cc2ccccc12 endpoint_value="108% (inactive)"
smiles_entry=O=C1C(Cl)=C(Nc2ccc(Nc3ccccc3)c(NC3=C(Cl)C(=O)c4ccccc4C3=O)c2)C(=O)c2ccccc21 endpoint_value="118% (inactive)"
smiles_entry=COc1ccc(Cn2cc3c(c2)-c2oncc2CC3)cc1OC endpoint_value="4.9% (active)"
smiles_entry=CC1(C)N=C(N)N=C(N)N1c1cccc(CCCCOc2ccccc2)c1 endpoint_value="23.6% (inactive)"

* * *

Test system: SK-MEL-28 melanoma
Assay: NCI-60 one-dose screen, 48 h
Conditions: 10 µM unless noted
The panel holds about 83,000 compounds, 20% with a hit somewhere; the sample as a whole holds those more often. Activity calls are given as the source filed them. How the source made its calls: active means growth percent below 10; inactive means the rest.
Possible outcomes: active, inactive

compound=CC#Cc1nc(Nc2cc(C)[nH]n2)c2ccccc2n1 discrete_label=inactive
compound="CC1(c2ccc(Br)cc2)NC(=O)NC1=O (stereo not given)" discrete_label=inactive
compound=CC[n+]1c(C)ccc2cc(C)ccc21 discrete_label=inactive
compound=Nc1ncn([C@@H]2O[C@H](CO)[C@@H](O)C2(F)F)c(=O)n1 discrete_label=inactive
compound=CC(=O)OCC(=O)[C@@]1(O)[C@H](C)C[C@H]2[C@@H]3C=C(C)C4=Cc5c(cnn5-c5ccc(F)cc5)C[C@]4(C)[C@H]3[C@@H](O)C[C@@]21C discrete_label=inactive
compound=Cc1c(Cc2ccccc2)c(=O)oc2c(C)c(OCc3n[nH]c(=S)o3)ccc12 discrete_label=inactive
compound=O=C(/C=C/c1cccc(O)c1)c1cccc(-n2cc(-c3ccc(Cl)cc3)[nH]c2=O)c1 discrete_label=active
compound=FC(F)(F)c1cccc(-c2[nH]ncc2-c2nnnn2-c2ccccc2)c1 discrete_label=inactive
compound=O=C1c2ccccc2CCc2ccccc21 discrete_label=inactive
compound=Nc1cc2c(cc1Br)[nH]c(=O)c1ccccc12 discrete_label=inactive

* * *

Test system: MALME-3M melanoma
Assay: NCI-60 one-dose screen, 48 h (100 = growth as untreated, 0 = no growth, -100 = all killed)
Conditions: 10 µM unless noted
Compounds without any hit were thinned out: in the full panel of roughly 83,000, 20% have a hit.
READOUT: growth (%)

molecule=COC(=O)c1cc(O)c2cc3c(cc2c1-c1cc(OC)c(OC)c(OC)c1)OCO3 endpoint_value=48.3
molecule="CCC(C)C1NC(=O)C(CCCCN)NC(=O)C(CCCCN)NC(=O)C(CC(C)C)NC(=O)C(CCCCN)NC(=O)C(C(C)CC)NC(=O)C(C(C)C)NC(=O)C(C(C)CC)NC(=O)C(CCCCN)NC(=O)C(CCCCN)NC(=O)C(C)NC(=O)C(CCCCN)NC(=O)C(CC(C)C)NC1=O (centres undefined)" endpoint_value=9.48
molecule=Cc1c(Cc2ccccc2)c(=O)oc2c(C)c(OCc3n[nH]c(=S)o3)ccc12 endpoint_value=48.7
molecule=COC(=O)/C=C/c1cc(O)c2oc(-c3ccc(O)c(O)c3)c(C(=O)OC)c2c1 endpoint_value=57.4
molecule=COC(=O)/C(Br)=C/c1c[nH]c2ccc(Br)cc12 endpoint_value=95.2
molecule=CCCCCCC(=O)C(C)C endpoint_value=89.2
molecule=CCCCN(CCCC)c1ccc(C(=O)O)cc1 endpoint_value=74
molecule=COc1ccc(CNCCCN2C(=O)c3ccc4c5c(ccc(c35)C2=O)C(=O)N(CCCNCc2ccc(OC)c(OC)c2OC)C4=O)c(OC)c1OC endpoint_value=-78.5
molecule="CCN(CC)CCCC(C)Nc1c(C)cnc2cc(Cl)c(C)cc12 (centres undefined)" endpoint_value=110

* * *

Test system: SN12C renal
Assay: NCI-60 one-dose screen, 48 h (100 = growth as untreated, 0 = no growth, -100 = all killed)
Conditions: 10 µM unless noted
Compounds without any hit were thinned out: in the full panel of roughly 83,000, 20% have a hit.
READOUT: growth (%)

compound=Cc1nc(NC(=O)NC2CCCCC2)sc1C(=O)NN readout=growth endpoint_value=106
compound="C/C=C(/C)C(=O)OC1C=C(CO)C(=O)C(OC(=O)/C(C)=C\\C)C1C(C)C (configuration not stated)" readout=growth endpoint_value=-56.9
compound=c1cc[c]([Bi]([c]2ccccc2)[c]2ccccc2)cc1 readout=growth endpoint_value=97.1
compound=BrCCCOc1ccc(Oc2ccc(OCCCBr)cc2)cc1 readout=growth endpoint_value=95.3
compound=CCOC(=O)NNc1[nH]c(-c2ccc(OC)cc2)cc1C#N readout=growth endpoint_value=94.7
compound="O=C(OCC1CC2(Cl)C(Cl)=C(Cl)C1(Cl)C2(Cl)Cl)C1C(C(=O)OCC2CC3(Cl)C(Cl)=C(Cl)C2(Cl)C3(Cl)Cl)C2(Cl)C(Cl)=C(Cl)C1(Cl)C2(Cl)Cl (configuration not stated)" readout=growth endpoint_value=105
compound=COC(=O)c1ccc2[nH]c(O)c(C(=Nc3ccc(N(C)C(=O)CN4CCN(C)CC4)cc3)c3ccc(CCO)cc3)c2c1 readout=growth endpoint_value=27.8
compound="COC1(OC)N=C(N)C2(C#N)C3(C(=O)Nc4ccccc43)C12C#N (configuration not stated)" readout=growth endpoint_value=93.8
compound=N=C(N)c1ccc(-c2ccc(-c3cc(Cl)cc(Cl)c3)s2)cc1 readout=growth endpoint_value=-77
compound=O=C1CCNC1 readout=growth endpoint_value=103
compound=CCN(CC)CCOC(=O)c1cccnc1 readout=growth endpoint_value=96.2
compound=COc1cc(-c2nc(/C=C3/C(=O)Nc4ccccc43)c3ccccn23)cc(OC)c1OC readout=growth endpoint_value=79.3
compound=O=C(/C=C1\C(=O)N(Cc2ccc([N+](=O)[O-])cc2)c2ccccc21)c1ccc(OCCN2CCCC2)cc1 readout=growth endpoint_value=37.3
compound=COc1cc(Cn2ccc3c2-c2oncc2CC3)cc(OC)c1 readout=growth endpoint_value=38
compound=CC(=O)Nc1nc(C)c(C(=O)N/N=C/N2CCCCC2)s1 readout=growth endpoint_value=106
compound="Cc1ccnc2c(NC(C)CCCN)cc(O)c(O)c12 (configuration not stated)" readout=growth endpoint_value=27.2
compound="CCCCN(CCCC)CC(O)CN(CC)CC (configuration not stated)" readout=growth endpoint_value=96.4
compound=C[C@@H](c1ccc2c(c1)[nH]c1ccc(Cl)cc12)c1nc2ccc(Cl)cc2[nH]1 readout=growth endpoint_value=80.6
compound="CCCCCCCCCCC(C[N+](C)(C)C/C=C/c1ccccc1)C(O)c1ccccc1 (configuration not stated)" readout=growth endpoint_value=15.8
compound=O=C1C(Cl)=C(SC2=NCCN2)C(=O)c2ccccc21 readout=growth endpoint_value=74
compound=COc1cc2c(cc1OC)C(Cc1cc(OC)c(OC)cc1[N+](=O)[O-])=NCC2 readout=growth endpoint_value=77.9
compound=COc1ccc2nc3cc(Cl)ccc3c(NCCCNC(C)=O)c2c1 readout=growth endpoint_value=38.1

Data credit: PubChem BioAssay (NCI)
